# ASSAY REMARKS: Solubility of 5-azacytidine in various solvents at ambient temperature (visual, solvent aliquot addition)
# Format: physicochemical
# TEST PARAMETERS: DMSO, organic solvent or mixture, thermodynamic from solid
# Procedure: Solubility was estimated by treating a weighed sample of 5-azacytidine with measured aliquots of the test solvent at ambient temperature, with shaking and/or sonication between aliquots. Dissolution was determined by visual inspection. Solubility numbers were calculated by dividing the total amount of solvent used to dissolve the sample by the weight of the sample. […] The solubility number is expressed as “greater than” if dissolution occurred on addition of the first solvent aliquot.
MEASUREMENT TYPE: solubility (µg/mL)
Report as a plain number; the unit µg/mL is understood.

Inquiry: Can you look up the measured solubility of Nc1ncn([C@@H]2O[C@H](CO)[C@@H](O)[C@H]2O)c(=O)n1 [5-azacytidine] for me?
Reply text: 2200

The values you see were collected from patent US9968627B2.
